Test system: Staphylococcus aureus
experimentSummary: Antibacterial activity against Staphylococcus aureus Smith assessed as growth inhibition by CLSI broth microdilution method
Format: functional
Listed compounds paired with reported MIC
Remember to follow the number with its unit.

Examples with their reported MIC follow.
* O=C(CO)N1CCN(c2c(F)cc(N3C[C@H](Cn4ccnn4)OC3=O)cc2F)CCN1 | 2 µg/mL
* CC(=S)NC[C@H]1CN(c2ccc(N3CCNN(C(=O)CO)CC3)c(F)c2)C(=O)O1 | 0.25 µg/mL

For the compound O=C(CO)N1CCN(c2ccc(N3C[C@H](CNc4ccon4)OC3=O)cc2F)CCN1 , give its measured MIC value. 2 µg/mL

Indicate its recorded MIC; the compound in question is O=C(CO)N1CCN(c2c(F)cc(N3C[C@H](CNc4ccon4)OC3=O)cc2F)CCN1 0.5 µg/mL

Specify MIC for CC(=S)NC[C@H]1CN(c2cc(F)c(N3CCNN(C(=O)CO)CC3)c(F)c2)C(=O)O1 and stop. 0.25 µg/mL

Read the entry COC(=S)NC[C@H]1CN(c2cc(F)c(N3CCNN(C(=O)CO)CC3)c(F)c2)C(=O)O1 and write its reported MIC. 0.25 µg/mL

Annotate the compound O=C1O[C@@H](CNc2ccon2)CN1c1cc(F)c(N2CCNOCC2)c(F)c1 with its measured MIC. 1 µg/mL

Quickly give me recorded MIC for O=C1O[C@@H](Cn2ccnn2)CN1c1cc(F)c(N2CCNOCC2)c(F)c1 2 µg/mL

Look up and report measured MIC for this entry: O=C(CO)N1CCN(c2c(F)cc(N3C[C@H](CNc4ccon4)OC3=O)cc2F)CCO1 0.5 µg/mL

###

Test system: Staphylococcus aureus
experimentSummary: Antibacterial activity against Staphylococcus aureus SR20549 clinical isolate assessed as growth inhibition by CLSI broth microdilution method
Format: functional
measureName: MIC (µg/mL)
Numbers only; they are read as µg/mL.

• COC(=S)NC[C@H]1CN(c2cc(F)c(N3CCON(C(=O)CO)CC3)c(F)c2)C(=O)O1 = 0.25
• O=C(CO)N1CCN(c2c(F)cc(N3C[C@H](Cn4ccnn4)OC3=O)cc2F)CCN1 = 1
• O=C(CO)N1CCN(c2ccc(N3C[C@H](Cn4ccnn4)OC3=O)cc2F)CCN1 = 2

Answer briefly: MIC recorded on Staphylococcus aureus for CC(=S)NC[C@H]1CN(c2cc(F)c(N3CCON(C(=O)CO)CC3)c(F)c2)C(=O)O1 0.125

Consider the compound COC(=S)NC[C@H]1CN(c2cc(F)c(N3CCNN(C(=O)CO)CC3)c(F)c2)C(=O)O1 tested on Staphylococcus aureus; state its MIC. 0.25

Fetch value of MIC on Staphylococcus aureus for O=C(CO)N1CCN(c2c(F)cc(N3C[C@H](Cn4ccnn4)OC3=O)cc2F)CCO1 . 1

Find the measured MIC of CC(=O)NC[C@H]1CN(c2cc(F)c(N3CCON(C(=O)CO)CC3)c(F)c2)C(=O)O1 with Staphylococcus aureus as test system. 2

// output MIC; input CC(=S)NC[C@H]1CN(c2cc(F)c(N3CCNOCC3)c(F)c2)C(=O)O1 ; system Staphylococcus aureus 0.25

Give MIC for this entry on Staphylococcus aureus: O=C1O[C@@H](Cn2ccnn2)CN1c1cc(F)c(N2CCNOCC2)c(F)c1 1

###

measurementTarget: MAO-B (Rattus norvegicus, UniProt P19643)
Sequence (P19643 whole entry): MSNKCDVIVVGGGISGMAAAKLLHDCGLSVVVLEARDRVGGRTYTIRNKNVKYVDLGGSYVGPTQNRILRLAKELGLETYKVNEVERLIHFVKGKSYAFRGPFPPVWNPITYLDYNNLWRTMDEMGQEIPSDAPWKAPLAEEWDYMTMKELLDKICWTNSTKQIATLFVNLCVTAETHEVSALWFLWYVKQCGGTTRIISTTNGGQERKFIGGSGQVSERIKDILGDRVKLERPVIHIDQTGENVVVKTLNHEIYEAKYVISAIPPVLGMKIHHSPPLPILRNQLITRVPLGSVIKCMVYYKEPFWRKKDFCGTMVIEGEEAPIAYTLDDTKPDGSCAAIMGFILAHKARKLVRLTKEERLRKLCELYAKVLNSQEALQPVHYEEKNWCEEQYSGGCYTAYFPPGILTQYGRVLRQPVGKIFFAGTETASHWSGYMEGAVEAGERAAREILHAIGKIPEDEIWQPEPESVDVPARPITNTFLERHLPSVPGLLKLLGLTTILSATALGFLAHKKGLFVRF
experimentSummary: Inhibition of MAO-B in rat forebrain using [14C]PEA as substrate at 30 uM incubated for 20 mins prior to substrate addition measured after 10 mins by liquid scintillation counting analysis relative to control
Type: tissue-based
conditionContext: probe [14C]PEA
measureName: inhibition at 10 min, 30 µM (%)
Express it in %; write the number only.

Worked examples, 3 compounds total:
* CC(=O)NC[C@H]1CN(c2ccc(N3CCOCC3)c(F)c2)C(=O)O1 | 70.4
* CC(=O)NC[C@H]1CN(c2ccc(N3CCN(C(=O)CO)CC3)c(F)c2)C(=O)O1 | 20.2
* COC(=S)NC[C@H]1CN(c2ccc(N3CCNN(C(=O)CO)CC3)c(F)c2)C(=O)O1 | 10.1

With those in mind, consider the next compound.
Note inhibition at 10 min, 30 µM for the compound shown: COC(=S)NC[C@H]1CN(c2cc(F)c(N3CCNN(C(=O)CO)CC3)c(F)c2)C(=O)O1 10.6

###

ED50 values, listed per item
System: Staphylococcus aureus
experimentSummary: Antibacterial activity against methicillin-resistant Staphylococcus aureus SR3637 infected in JCL/ICR mouse systemic infection model assessed as mortality administered as po measured over 7 days
Type: functional
conditionContext: 168 h
Your answer is read as mg/kg, so omit the unit and give the number.

- CC(=S)NC[C@H]1CN(c2cc(F)c(N3CCNN(C(=O)CO)CC3)c(F)c2)C(=O)O1: 9.83
- COC(=S)NC[C@H]1CN(c2ccc(N3CCNN(C(=O)CO)CC3)c(F)c2)C(=O)O1: 1.05
- CC(=O)NC[C@H]1CN(c2ccc(N3CCN(C(=O)CO)CC3)c(F)c2)C(=O)O1: 4.76
- O=C(CO)N1CCN(c2c(F)cc(N3C[C@H](CNc4ccon4)OC3=O)cc2F)CCN1: 2.83
- CC(=O)NC[C@H]1CN(c2ccc(N3CCOCC3)c(F)c2)C(=O)O1: 2.02

Give a short answer stating reported ED50 for COC(=S)NC[C@H]1CN(c2cc(F)c(N3CCNN(C(=O)CO)CC3)c(F)c2)C(=O)O1 . 2.07

###

measurementTarget: MAO-A (Rattus norvegicus, UniProt P21396)
Sequence (P21396 whole entry): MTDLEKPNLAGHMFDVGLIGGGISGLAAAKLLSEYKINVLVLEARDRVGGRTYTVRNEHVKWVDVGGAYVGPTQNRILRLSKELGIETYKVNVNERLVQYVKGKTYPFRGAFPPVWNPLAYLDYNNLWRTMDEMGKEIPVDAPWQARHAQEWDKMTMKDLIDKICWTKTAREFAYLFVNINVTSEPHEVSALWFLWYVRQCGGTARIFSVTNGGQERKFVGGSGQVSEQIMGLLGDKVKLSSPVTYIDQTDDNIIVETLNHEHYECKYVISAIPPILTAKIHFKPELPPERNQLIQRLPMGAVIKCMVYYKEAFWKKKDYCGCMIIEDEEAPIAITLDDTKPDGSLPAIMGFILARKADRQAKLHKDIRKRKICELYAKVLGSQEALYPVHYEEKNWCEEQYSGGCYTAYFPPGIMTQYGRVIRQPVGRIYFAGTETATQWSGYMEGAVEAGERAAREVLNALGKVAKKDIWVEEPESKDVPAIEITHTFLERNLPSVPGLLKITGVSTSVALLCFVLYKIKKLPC
experimentSummary: Inhibition of MAO-A in rat forebrain using [14C]5-HT as substrate at 30 uM incubated for 20 mins prior to substrate addition measured after 5 mins by liquid scintillation counting analysis relative to control
Assay type: tissue-based
conditionContext: probe [14C]5-HT
measureName: inhibition at 5 min, 30 µM (%)
Enter your answer as a number in %; do not include the unit.

Before answering, review these 3 worked examples.
- COC(=S)NC[C@H]1CN(c2cc(F)c(N3CCNN(C(=O)CO)CC3)c(F)c2)C(=O)O1: 12.4
- COC(=S)NC[C@H]1CN(c2ccc(N3CCNN(C(=O)CO)CC3)c(F)c2)C(=O)O1: 48.2
- CC(=O)NC[C@H]1CN(c2ccc(N3CCN(C(=O)CO)CC3)c(F)c2)C(=O)O1: 53.6

Shift focus to the following entry.
Specify measured inhibition at 5 min, 30 µM for CC(=O)NC[C@H]1CN(c2ccc(N3CCOCC3)c(F)c2)C(=O)O1 . 61.3

###

Below, each entry is listed with its recorded ED50.
Tested on: Staphylococcus aureus
experimentSummary: Antibacterial activity against methicillin-resistant Staphylococcus aureus SR3637 infected in JCL/ICR mouse systemic infection model assessed as mortality administered as iv measured over 7 days
Type: functional
conditionContext: 168 h
Numbers only; they are read as mg/kg.

* O=C(CO)N1CCN(c2ccc(N3C[C@H](Cn4ccnn4)OC3=O)cc2F)CCN1 | 0.77
* CC(=S)NC[C@H]1CN(c2cc(F)c(N3CCNN(C(=O)CO)CC3)c(F)c2)C(=O)O1 | 2.95
* CC(=O)NC[C@H]1CN(c2ccc(N3CCN(C(=O)CO)CC3)c(F)c2)C(=O)O1 | 1.85

Read off the recorded ED50 for O=C(CO)N1CCN(c2c(F)cc(N3C[C@H](CNc4ccon4)OC3=O)cc2F)CCN1 2.18

###

Tested on: Enterococcus faecium
experimentSummary: Antibacterial activity against Enterococcus faecium SR7940 clinical isolate assessed as growth inhibition by CLSI broth microdilution method
Format: functional
In this section we review reported MIC values for a set of compounds.
Respond numerically; units are µg/mL and should not be typed.

* O=C(CO)N1CCN(c2c(F)cc(N3C[C@H](Cn4ccnn4)OC3=O)cc2F)CCO1 | 2

Give reported MIC value for O=C(CO)N1CCN(c2c(F)cc(N3C[C@H](CNc4ccon4)OC3=O)cc2F)CCN1 1

Recall and state the measured MIC for O=C(CO)N1CCN(c2c(F)cc(N3C[C@H](CNc4ccon4)OC3=O)cc2F)CCO1 . 1
